Test system: Aβ40 in conditioned medium of cells stably expressing Amyloid Precursor Protein (APP)
Assay: In vitro BACE cell-based assay (HEK cell assay), Aβ40 sandwich ELISA
Conditions: Homo sapiens, HEK293; Aβ40, 24 h incubation

{"compound": "COc1cnc(C(=O)Nc2ccc(F)c(C3(C(F)F)CS(=O)(=O)C(C)(C)C(N)=N3)c2)cn1 (stereo not drawn)", "IC50 [nM]": 1420}
{"compound": "CC1(C)C(N)=N[C@](C)(c2cc(NC(=O)c3ccc(F)cn3)ccc2F)CS1(=O)=O", "IC50 [nM]": 3.7}
{"compound": "COc1cnc2c(Nc3cnc(F)c([C@]4(C)CS(=O)(=O)C(C)(C)C(N)=N4)c3)nccc2c1", "IC50 [nM]": 6.7}

###

Biological target: Cathepsin D (Cat D) (Homo sapiens, UniProt P07339)
Construct: Recombinant Cat D was expressed in CHO cells; made in house; host or cells: CHO cells
Sequence (P07339 65-412, species assumed): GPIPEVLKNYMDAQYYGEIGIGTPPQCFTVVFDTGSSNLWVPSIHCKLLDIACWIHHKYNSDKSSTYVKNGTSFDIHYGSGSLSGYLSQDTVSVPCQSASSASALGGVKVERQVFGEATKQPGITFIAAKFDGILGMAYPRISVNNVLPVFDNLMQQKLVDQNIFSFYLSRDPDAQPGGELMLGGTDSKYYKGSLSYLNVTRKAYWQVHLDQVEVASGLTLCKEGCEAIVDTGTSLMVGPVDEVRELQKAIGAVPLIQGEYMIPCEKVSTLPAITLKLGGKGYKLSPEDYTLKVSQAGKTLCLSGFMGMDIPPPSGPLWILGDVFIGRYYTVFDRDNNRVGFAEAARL
Test: In vitro enzymatic Cathepsin D (Cat D) FRET assay
Format: biochemical
Details: read-out: CatD IC50
pIC50: −log10 of the molar value.
Note to self: values exactly at 4 are MET. So pIC50 at or above 4 is MET, below is NOT MET.

{"compound": "NC1=N[C@](CF)(c2cc(Br)ccc2F)CS(=O)(=O)C12CCC2 [Example 172]", "cat": "MET"}
{"compound": "NC1=N[C@](CF)(c2cc(Nc3ncnc4cc(Cl)cnc34)ccc2F)CS(=O)(=O)C12CCC2 [Example 240]", "cat": "MET"}
{"compound": "CC1(C)C(N)=N[C@](CF)(c2cc(Nc3ncc(F)c4cc(Cl)cnc34)ccc2F)CS1(=O)=O [Example 233]", "cat": "NOT MET"}
{"compound": "COc1cnc(C(=O)Nc2ccc(F)c([C@]3(CF)CS(=O)(=O)C(C)(C)C(N)=N3)c2)c(OC)n1 [Example 155]", "cat": "NOT MET"}
{"compound": "Cc1c(C(=O)Nc2ccc(F)c([C@]3(CF)CS(=O)(=O)C4(CCC4)C(N)=N3)c2)nc2ccc(Cl)cn12 [Example 367]", "cat": "NOT MET"}
{"compound": "COc1ccc(C(=O)Nc2ccc(F)c([C@]3(C)CS(=O)(=O)C(C)(C)C(N)=N3)c2)nc1 [Example 22]", "cat": "NOT MET"}
{"compound": "CC1(C)C(N)=N[C@](CF)(c2cc(Nc3ncc(F)c4cc(OCC(F)(F)F)cnc34)ccc2F)CS1(=O)=O [Example 432]", "cat": "NOT MET"}
{"compound": "COc1cnc2c(Nc3ccc(F)c([C@]4(C)CS(=O)(=O)[C@@](C)(F)C(N)=N4)c3)ncnc2c1 [Example 177]", "cat": "NOT MET"}
{"compound": "CC1(C)C(N)=N[C@](C)(c2cc(Sc3cccc4ccccc34)ccc2F)CS1(=O)=O [Example 79]", "cat": "MET"}
{"compound": "COc1ccc(C(=O)Nc2ccc(F)c([C@]3(C)CS(=O)(=O)C(C)(C)C(N)=N3)c2)c(F)c1 [Example 354]", "cat": "NOT MET"}
{"compound": "COc1cnc2c(Nc3ccc(F)c([C@]45COC[C@H]4S(=O)(=O)C(C)(C)C(N)=N5)c3)nccc2n1 [Example 248]", "cat": "NOT MET"}

###

Molecular target: Cathepsin D (Cat D) (Homo sapiens)
Construct: Recombinant Cat D was expressed in CHO cells; made in house; host or cells: CHO cells
Assay: In vitro enzymatic Cathepsin D (Cat D) FRET assay
Format: biochemical
Conditions: read-out: CatD IC50
Measured log10 IC50 values are reported for all entries that follow.
parameter: log10 IC50 (log10 of the value in µM)

{"compound": "Cc1cc(OC(F)F)cnc1C(=O)Nc1ccc(F)c([C@@]2(C)N=C(N)C3(CCC3)S(=O)(=O)[C@@H]2F)c1", "log10 IC50": 1.79}
{"compound": "COc1ccc(C)cc1Oc1ccc(F)c([C@]2(C)CS(=O)(=O)C(C)(C)C(N)=N2)c1", "log10 IC50": 2.29}
{"compound": "Cc1c(C(=O)Nc2ccc(F)c([C@]3(CF)CS(=O)(=O)C(C)(C)C(N)=N3)c2)nc2ccc(Cl)cn12", "log10 IC50": 3.61}
{"compound": "CC1(C)C(N)=N[C@](C)(c2cc(Oc3cccc(C(F)(F)F)n3)ccc2F)CS1(=O)=O", "log10 IC50": 2.12}
{"compound": "C[C@@]1(c2cc(NC(=O)c3ccc(Cl)cn3)ccc2F)CS(=O)(=O)C2(CCC2)C(N)=N1", "log10 IC50": 1.77}
{"compound": "CC1(C)C(N)=N[C@](C)(c2cc(Oc3ncc(C(F)(F)F)cc3F)ccc2F)CS1(=O)=O", "log10 IC50": 2.52}
{"compound": "CC1(C)C(N)=N[C@](C)(c2cc(NC(=O)c3cnc4ccccc4n3)ccc2F)CS1(=O)=O", "log10 IC50": 1.56}
{"compound": "CC(C)c1cc(Cl)cnc1C(=O)Nc1ccc(F)c([C@]2(CF)CS(=O)(=O)C(C)(C)C(N)=N2)c1 [Example 198, 2,2,2-trifluoroacetate]", "log10 IC50": 2.93}
{"compound": "COc1ncc(NC(=O)c2ccccn2)cc1[C@]1(C)CS(=O)(=O)C(C)(C)C(N)=N1", "log10 IC50": 2.75}

###

Test system: Aβ40 in conditioned medium of cells stably expressing Amyloid Precursor Protein (APP)
Test: In vitro BACE cell-based assay (HEK cell assay), Aβ40 sandwich ELISA
Details: Homo sapiens, HEK293

{"chemicalStructure": "CC1(C)C(N)=N[C@](C)(c2cc(NC(=O)c3ccc(F)cn3)cnc2F)CS1(=O)=O", "censoringOperator": "=", "IC50 (nM)": 39.3}
{"chemicalStructure": "N#Cc1cnc(C(=O)Nc2ccc(F)c([C@]3(CF)CS(=O)(=O)C4(CCC4)C(N)=N3)c2)c(Cl)c1", "censoringOperator": "=", "IC50 (nM)": 7.1}
{"chemicalStructure": "Cc1cc(OC(F)F)cnc1C(=O)Nc1ccc(F)c([C@]2(C)CS(=O)(=O)C3(CC(F)(F)C3)C(N)=N2)c1", "censoringOperator": "=", "IC50 (nM)": 17.7}
{"chemicalStructure": "NC1=N[C@](CF)(c2cc(N)ccc2F)CS(=O)(=O)C12CCC2", "censoringOperator": "=", "IC50 (nM)": 3650}
{"chemicalStructure": "CC1(C)C(N)=N[C@](CF)(c2cc(NC(=O)c3cnc(OCC(F)(F)F)cn3)ccc2F)CS1(=O)=O", "censoringOperator": "=", "IC50 (nM)": 27}
{"chemicalStructure": "CC1(C)C(N)=N[C@](CF)(c2cc(NC(=O)c3ccc(C#N)cn3)ccc2F)CS1(=O)=O", "censoringOperator": "=", "IC50 (nM)": 14.3}
{"chemicalStructure": "CC1(C)C(N)=N[C@](C)(c2cc(NC(=O)c3ccc(Cl)cn3)cnc2F)CS1(=O)=O", "censoringOperator": "=", "IC50 (nM)": 11.4}
{"chemicalStructure": "Cc1cc(OC(F)F)cnc1C(=O)Nc1ccc(F)c([C@@]2(C)N=C(N)C3(CCC3)S(=O)(=O)[C@@H]2F)c1", "censoringOperator": "=", "IC50 (nM)": 5.8}
{"chemicalStructure": "CC1(C)C(N)=N[C@](C)(c2cc(NC(=O)c3cnc(OCC(F)(F)F)cn3)cnc2F)CS1(=O)=O", "censoringOperator": "=", "IC50 (nM)": 11}
{"chemicalStructure": "CC1(C)C(N)=N[C@](C)(c2cc(NC(=O)c3ccc(C(F)F)cn3)cnc2F)CS1(=O)=O", "censoringOperator": "=", "IC50 (nM)": 11.9}
{"chemicalStructure": "Cc1cc(OC(F)F)cnc1C(=O)Nc1ccc(F)c([C@]2(C)CS(=O)(=O)C3(CCC3)C(N)=N2)c1", "censoringOperator": "=", "IC50 (nM)": 7.4}
{"chemicalStructure": "Cc1cc(Cl)cnc1C(=O)Nc1ccc(F)c([C@@]2(C)N=C(N)C3(CC3)S(=O)(=O)[C@H]2F)c1", "censoringOperator": "=", "IC50 (nM)": 2.6}
{"chemicalStructure": "CC1(C)C(N)=N[C@](C)(c2cc(Nc3ncnc4cc(C#N)cnc34)cnc2F)CS1(=O)=O", "censoringOperator": "=", "IC50 (nM)": 23.9}
{"chemicalStructure": "COCc1cc(Cl)cnc1C(=O)Nc1ccc(F)c([C@]2(CF)CS(=O)(=O)C3(CCC3)C(N)=N2)c1", "censoringOperator": "=", "IC50 (nM)": 27.3}
{"chemicalStructure": "C=Cc1cc(Cl)cnc1C(=O)Nc1ccc(F)c([C@]2(CF)CS(=O)(=O)C(C)(C)C(N)=N2)c1", "censoringOperator": "=", "IC50 (nM)": 53.9}
{"chemicalStructure": "Cc1cc(Cl)cnc1C(=O)Nc1ccc(F)c([C@]2(CF)CS(=O)(=O)C(C)(C)C(N)=N2)c1", "censoringOperator": "=", "IC50 (nM)": 23.2}
{"chemicalStructure": "CC(C)c1c(C(=O)Nc2ccc(F)c([C@]3(CF)CS(=O)(=O)C(C)(C)C(N)=N3)c2)nc2ccc(Cl)cn12", "censoringOperator": "=", "IC50 (nM)": 125}
{"chemicalStructure": "COc1cc(Cl)cnc1C(=O)Nc1ccc(F)c([C@]2(CF)CS(=O)(=O)C3(CCC3)C(N)=N2)c1", "censoringOperator": "=", "IC50 (nM)": 29.8}
{"chemicalStructure": "Cc1cc(OC(F)F)cnc1C(=O)Nc1ccc(F)c([C@@]2(CF)CS(=O)(=O)C3(CCC3)C(N)=N2)c1", "censoringOperator": ">", "IC50 (nM)": 15600}
{"chemicalStructure": "Cc1cc(OCC(F)(F)F)cnc1C(=O)Nc1ccc(F)c([C@]2(CF)CS(=O)(=O)C3(CCC3)C(N)=N2)c1", "censoringOperator": "=", "IC50 (nM)": 61.6}
{"chemicalStructure": "C[C@@]1(c2cc(NC(=O)c3ccc(Cl)cn3)ccc2F)CS(=O)(=O)C2(CCC2)C(N)=N1", "censoringOperator": "=", "IC50 (nM)": 5.9}
{"chemicalStructure": "Cc1cc(C(F)F)cnc1C(=O)Nc1ccc(F)c([C@]2(CF)CS(=O)(=O)C3(CCC3)C(N)=N2)c1", "censoringOperator": "=", "IC50 (nM)": 12.3}
{"chemicalStructure": "CC1(C)C(N)=N[C@](C)(c2cc(Nc3c(Cl)sc4cc(C#N)cnc34)ccc2F)CS1(=O)=O", "censoringOperator": "=", "IC50 (nM)": 1440}
{"chemicalStructure": "COc1cnc(C(=O)Nc2ccc(F)c([C@]3(CF)CS(=O)(=O)C4(CCC4)C(N)=N3)c2)c(C)c1", "censoringOperator": "=", "IC50 (nM)": 14.8}
